- target entity: UniProt P08684
- assay: CYP inhibition in human hepatomicrosomes, CYP3A4
assay readout: IC50

Give the measured IC50 of CC[C@@]1(O)C(=O)OCc2c1cc1n(c2=O)Cc2c-1nc1cc(F)c(C)c3c1c2[C@@H](NC(=O)CO)CC3 .
> 30 µM

###

Please go through the items and note down their remaining at 24 h, 5 µM.
- assay: Stability of compounds in human plasma
- Type: in vitro ADME
- condition summary: 37°C, 5 µmol/L, 24 h, read-out: Residual percentage (%)
Report the figure in % without appending any unit label.

Look at this compound and give its reported remaining at 24 h, 5 µM. CC[C@@]1(O)C(=O)OCc2c1cc1n(c2=O)Cc2c-1nc1cc(F)c(C)c3c1c2C(NC(=O)C[C@@H](C)O)CCC3 (single isomer, unassigned)
87

remaining at 24 h, 5 µM for CC[C@@]1(O)C(=O)OCc2c1cc1n(c2=O)Cc2c-1nc1cc(F)c(C)c3c1c2[C@@H](NC(=O)[C@@H](O)C1CC1)CCC3 ?
88.8

What measured remaining at 24 h, 5 µM goes with CC[C@@]1(O)C(=O)OCc2c1cc1n(c2=O)Cc2c-1nc1cc(F)c(C)c3c1c2[C@@H](NC(=O)CO)CC3 ?
82.3

Can you look up the measured remaining at 24 h, 5 µM of CC[C@@]1(O)C(=O)OCc2c1cc1n(c2=O)Cc2c-1nc1cc(F)c(C3CC3)c3c1c2C(NC(=O)C[C@@H](C)O)CC3 (single isomer, unassigned) for me?
102

###

- assay: Pharmacokinetic test in SD rats
- Assay type: in vivo
- condition summary: rat, 2 mg/kg; male SD rats, single intravenous injection, 2 mpk, plasma
assay readout: C0 (ng/mL)
State just the number; it will be interpreted in ng/mL.

Quick check: C0 of CC[C@@]1(O)C(=O)OCc2c1cc1n(c2=O)Cc2c-1nc1cc(F)c(C)c3c1c2[C@@H](NC(=O)CO)CC3 ?
748

###

- target entity: CYP2D6 (Homo sapiens, UniProt P10635)
- Sequence (P10635 whole entry): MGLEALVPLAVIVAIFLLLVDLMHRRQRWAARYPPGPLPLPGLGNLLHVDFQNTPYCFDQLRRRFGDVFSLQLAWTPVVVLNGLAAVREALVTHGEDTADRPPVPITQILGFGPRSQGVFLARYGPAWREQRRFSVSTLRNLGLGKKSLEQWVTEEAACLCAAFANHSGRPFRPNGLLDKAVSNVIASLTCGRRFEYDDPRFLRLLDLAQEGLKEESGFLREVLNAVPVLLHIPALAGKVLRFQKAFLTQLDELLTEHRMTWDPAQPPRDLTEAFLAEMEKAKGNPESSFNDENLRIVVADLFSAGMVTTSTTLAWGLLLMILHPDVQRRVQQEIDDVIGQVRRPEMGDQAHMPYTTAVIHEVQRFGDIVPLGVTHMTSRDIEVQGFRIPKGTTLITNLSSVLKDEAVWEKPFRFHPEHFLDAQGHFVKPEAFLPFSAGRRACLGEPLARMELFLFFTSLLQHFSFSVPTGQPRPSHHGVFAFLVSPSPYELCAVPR
assay readout: IC50

# lookup: IC50 of CC[C@@]1(O)C(=O)OCc2c1cc1n(c2=O)Cc2c-1nc1cc(F)c(C)c3c1c2[C@@H](NC(=O)CO)CC3 [Dxd]
> 30 µM

###

- assay: Kinetic solubility test in PBS 7.4
- Type: physicochemical
- condition summary: pH 7.4, aqueous buffer
assay readout: solubility at 2 h (µM)
Expressed in µM, but write only the number.

For the compound shown here, CC[C@@]1(O)C(=O)OCc2c1cc1n(c2=O)Cc2c-1nc1cc(F)c(C)c3c1c2[C@@H](NC(=O)CO)CC3 [Dxd] , give the reported solubility at 2 h.
11.3

###

- target entity: CYP1A2 (Homo sapiens)
- Sequence (P05177 whole entry): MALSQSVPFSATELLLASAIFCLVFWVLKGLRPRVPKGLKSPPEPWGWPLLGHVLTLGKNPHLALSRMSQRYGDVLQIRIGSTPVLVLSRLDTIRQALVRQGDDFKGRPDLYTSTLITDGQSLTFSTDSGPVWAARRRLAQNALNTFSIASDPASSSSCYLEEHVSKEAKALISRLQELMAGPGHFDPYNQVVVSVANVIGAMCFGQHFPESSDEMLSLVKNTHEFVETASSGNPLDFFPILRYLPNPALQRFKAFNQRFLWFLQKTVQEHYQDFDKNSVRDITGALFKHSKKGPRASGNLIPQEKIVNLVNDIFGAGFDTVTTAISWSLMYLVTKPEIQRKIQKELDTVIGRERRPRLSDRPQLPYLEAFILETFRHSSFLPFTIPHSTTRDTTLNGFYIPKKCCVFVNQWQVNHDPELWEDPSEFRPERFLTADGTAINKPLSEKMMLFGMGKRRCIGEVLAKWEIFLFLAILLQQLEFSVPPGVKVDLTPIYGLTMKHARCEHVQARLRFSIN
pIC50: −log10 of the molar value.
assay readout: pIC50

What value of measured pIC50 is listed for CC[C@@]1(O)C(=O)OCc2c1cc1n(c2=O)Cc2c-1nc1cc(F)c(C)c3c1c2[C@@H](NC(=O)CO)CC3 ?
< 4.52

###

- assay: Pharmacokinetic test in SD rats
- Assay type: in vivo
- condition summary: rat, 2 mg/kg; male SD rats, single intravenous injection, 2 mpk, plasma
assay readout: clearance (L/h/kg)
Give the value in L/h/kg but do not write L/h/kg after it.

Which clearance is reported for this compound? CC[C@@]1(O)C(=O)OCc2c1cc1n(c2=O)Cc2c-1nc1cc(F)c(C)c3c1c2[C@@H](NC(=O)CO)CC3 [Dxd]
6.78

###

- target entity: CYP3A4 (Homo sapiens, UniProt P08684)
- Sequence (P08684 whole entry): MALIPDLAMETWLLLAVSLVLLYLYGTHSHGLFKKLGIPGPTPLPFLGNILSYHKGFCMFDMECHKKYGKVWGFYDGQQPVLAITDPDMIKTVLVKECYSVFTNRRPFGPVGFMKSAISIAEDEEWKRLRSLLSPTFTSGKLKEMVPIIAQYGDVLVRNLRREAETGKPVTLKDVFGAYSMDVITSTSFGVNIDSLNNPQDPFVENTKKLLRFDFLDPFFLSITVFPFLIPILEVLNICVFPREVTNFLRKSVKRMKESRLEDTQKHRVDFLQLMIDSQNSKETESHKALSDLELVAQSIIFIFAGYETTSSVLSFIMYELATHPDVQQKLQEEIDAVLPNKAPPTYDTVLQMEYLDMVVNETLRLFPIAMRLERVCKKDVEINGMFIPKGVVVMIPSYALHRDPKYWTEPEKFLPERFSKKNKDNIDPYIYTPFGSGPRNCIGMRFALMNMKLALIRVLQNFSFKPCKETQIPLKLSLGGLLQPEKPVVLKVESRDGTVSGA
- assay: CYP inhibition in human hepatomicrosomes, CYP3A4
- condition summary: read-out: 3A4M (IC50 µM); human hepatomicrosomes, substrate Midazolam
assay readout: IC50

Could you tell me which IC50 is on file for CC[C@@]1(O)C(=O)OCc2c1cc1n(c2=O)Cc2c-1nc1cc(F)c(C)c3c1c2[C@@H](NC(=O)CO)CC3 ?
> 30 µM

###

- Test system: MDA-MB-468
- assay: Inhibition of proliferation of MDA-MB-468 cells by test compounds (CellTiter-Glo, 72 h)
- Format: cell-based
- condition summary: MDA-MB-468, 72 h incubation
assay readout: pIC50
# reply with the number alone; pIC50 is -log10 of concentration in mol/L

Given the entry C=Cc1c(F)cc2nc3c(c4c2c1CCC4NC(=O)C[C@@H](C)O)Cn1c-3cc2c(c1=O)COC(=O)[C@]2(O)CC (stereo partly drawn) [7-2] , report its measured pIC50.
8.36

Looking for the measured pIC50 of CC[C@@]1(O)C(=O)OCc2c1cc1n(c2=O)Cc2c-1nc1cc(F)c(Br)c3c1c2C(NC(=O)C[C@@H](C)O)CC3 (stereo partly drawn) [3-1] , can you help?
8.12

What does the record list as pIC50 for CC[C@@]1(O)C(=O)OCc2c1cc1n(c2=O)Cc2c-1nc1cc(F)c(C3CC3)c3c1c2C(NC(=O)[C@H]1C[C@@H](O)C1)CCC3 (single isomer, unassigned) ?
7.71

So what's the measured pIC50 for this one? CC[C@@]1(O)C(=O)OCc2c1cc1n(c2=O)Cc2c-1nc1cc(F)c(C)c3c1c2C(NC(=O)[C@H]1C[C@@H](O)C1)CCO3 (single isomer, unassigned) [25-1]
7.16

I would be grateful if you could share the reported pIC50 for CC[C@@]1(O)C(=O)OCc2c1cc1n(c2=O)Cc2c-1nc1cc(F)cc3c1c2C(NC(=O)C[C@@H](C)O)CC3 (stereo partly drawn) [4-2] .
7.89

// pIC50 lookup, key: CC[C@@]1(O)C(=O)OCc2c1cc1n(c2=O)Cc2c-1nc1cc(F)c(OC(F)F)c3c1c2C(NC(=O)C[C@@H](C)O)CC3 (stereo partly drawn) [5-2]
8.03

###

I'd be grateful if you could share measured remaining at 6 h, 5 µM for these entries.
- assay: Stability of compounds in human plasma
- Type: in vitro ADME
- condition summary: 37°C, 5 µmol/L, 6 h, read-out: Residual percentage (%)
- Experimental: • (1) 199 µL of human plasma was added to the culture plate of each cell. […] All calculations were performed using Microsoft Excel. The peak area ratio was determined from the chromatogram of extracted ions. The percentage of compounds remaining at each time point was calculated as per the following formula: Residual percentagetmin (%) = peak area ratiotmin /peak areat0 × 100 [formula]
A number alone suffices; assume %.

Reported remaining at 6 h, 5 µM for CC[C@@]1(O)C(=O)OCc2c1cc1n(c2=O)Cc2c-1nc1cc(F)c(C)c3c1c2C(NC(=O)C[C@@H](C)O)CCC3 (single isomer, unassigned) : what is it?
89

Would you mind telling me what remaining at 6 h, 5 µM value was observed for CC[C@@]1(O)C(=O)OCc2c1cc1n(c2=O)Cc2c-1nc1cc(F)c(C)c3c1c2[C@@H](NC(=O)[C@@H](O)C1CC1)CCC3 ?
94.5

Reported remaining at 6 h, 5 µM, compound CC[C@@]1(O)C(=O)OCc2c1cc1n(c2=O)Cc2c-1nc1cc(F)c(C)c3c1c2[C@@H](NC(=O)CO)CC3 : ____
86.4

Would you mind telling me what remaining at 6 h, 5 µM value was observed for CC[C@@]1(O)C(=O)OCc2c1cc1n(c2=O)Cc2c-1nc1cc(F)c(C3CC3)c3c1c2C(NC(=O)C[C@@H](C)O)CC3 (single isomer, unassigned) ?
97.1

###

- assay: Stability of compounds in human plasma
- Format: in vitro ADME
- condition summary: 37°C, 5 µmol/L, 2 h, read-out: Residual percentage (%)
- Procedure: • (1) 199 µL of human plasma was added to the culture plate of each cell. […] All calculations were performed using Microsoft Excel. The peak area ratio was determined from the chromatogram of extracted ions. The percentage of compounds remaining at each time point was calculated as per the following formula: Residual percentagetmin (%) = peak area ratiotmin /peak areat0 × 100 [formula]
assay readout: remaining at 2 h, 5 µM (%)
Numeric only. Scale: %

Field request: remaining at 2 h, 5 µM | item: CC[C@@]1(O)C(=O)OCc2c1cc1n(c2=O)Cc2c-1nc1cc(F)c(C)c3c1c2C(NC(=O)C[C@@H](C)O)CCC3 (single isomer, unassigned)
86.2

# input molecule: CC[C@@]1(O)C(=O)OCc2c1cc1n(c2=O)Cc2c-1nc1cc(F)c(C)c3c1c2[C@@H](NC(=O)[C@@H](O)C1CC1)CCC3 ; wanted: its remaining at 2 h, 5 µM
92.1

What remaining at 2 h, 5 µM value was documented for this molecule, CC[C@@]1(O)C(=O)OCc2c1cc1n(c2=O)Cc2c-1nc1cc(F)c(C)c3c1c2[C@@H](NC(=O)CO)CC3 ?
86.8

What value of measured remaining at 2 h, 5 µM is listed for CC[C@@]1(O)C(=O)OCc2c1cc1n(c2=O)Cc2c-1nc1cc(F)c(C3CC3)c3c1c2C(NC(=O)C[C@@H](C)O)CC3 (single isomer, unassigned) ?
89.3
